tgt: 5-hydroxytryptamine receptor 1A (Rattus norvegicus, UniProt P19327)
Sequence (P19327 whole entry): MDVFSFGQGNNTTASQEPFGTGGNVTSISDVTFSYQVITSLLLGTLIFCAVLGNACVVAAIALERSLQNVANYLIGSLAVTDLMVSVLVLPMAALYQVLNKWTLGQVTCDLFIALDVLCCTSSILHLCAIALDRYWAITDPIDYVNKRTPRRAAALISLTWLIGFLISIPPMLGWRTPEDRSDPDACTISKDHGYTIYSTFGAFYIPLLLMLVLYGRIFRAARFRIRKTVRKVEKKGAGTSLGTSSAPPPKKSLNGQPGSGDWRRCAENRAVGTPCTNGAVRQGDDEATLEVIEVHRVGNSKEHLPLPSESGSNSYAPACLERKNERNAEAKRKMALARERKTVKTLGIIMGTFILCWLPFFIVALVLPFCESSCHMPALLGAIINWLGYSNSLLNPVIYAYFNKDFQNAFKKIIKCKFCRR
Class definitions on Ki: lo: < 3 nM; med: ≥ 3 nM and < 20 nM; hi: ≥ 20 nM

molecule=CCCN(CCC)[C@@H]1CCc2cccc(C)c2C1 tgt="5-hydroxytryptamine receptor 1A (Rattus norvegicus, UniProt P19327)" grouplabel=hi
molecule=CCCN(CCC)[C@H]1CCc2cccc(OS(=O)(=O)C(F)(F)F)c2C1 tgt="5-hydroxytryptamine receptor 1A (Rattus norvegicus, UniProt P19327)" grouplabel=med
molecule=CCCN(CCC)[C@@H]1CCc2cccc(C(=O)OC)c2C1 tgt="5-hydroxytryptamine receptor 1A (Rattus norvegicus, UniProt P19327)" grouplabel=med
molecule=CCCN(CCC)[C@@H]1CCc2cccc(-c3ccccc3)c2C1 tgt="5-hydroxytryptamine receptor 1A (Rattus norvegicus, UniProt P19327)" grouplabel=med
molecule=CCCN(CCC)[C@H]1CCc2cccc(C)c2C1 tgt="5-hydroxytryptamine receptor 1A (Rattus norvegicus, UniProt P19327)" grouplabel=hi
molecule=CCCN(CCC)[C@H]1CCc2cccc(C(C)=O)c2C1 tgt="5-hydroxytryptamine receptor 1A (Rattus norvegicus, UniProt P19327)" grouplabel=lo
molecule="CCCN(CCC)C1CCc2cccc(C(=O)O)c2C1 (racemic)" tgt="5-hydroxytryptamine receptor 1A (Rattus norvegicus, UniProt P19327)" grouplabel=hi
molecule=CCCN(CCC)[C@@H]1CCc2cccc(C(C)=O)c2C1 tgt="5-hydroxytryptamine receptor 1A (Rattus norvegicus, UniProt P19327)" grouplabel=lo
molecule=CCCN(CCC)[C@@H]1CCc2cccc(OC)c2C1 tgt="5-hydroxytryptamine receptor 1A (Rattus norvegicus, UniProt P19327)" grouplabel=lo
molecule=CCCN(CCC)[C@H]1CCc2ccccc2C1 tgt="5-hydroxytryptamine receptor 1A (Rattus norvegicus, UniProt P19327)" grouplabel=hi
molecule=CCCN(CCC)[C@H]1CCc2cccc(C(=O)OC)c2C1 tgt="5-hydroxytryptamine receptor 1A (Rattus norvegicus, UniProt P19327)" grouplabel=lo
molecule=CCCN(CCC)[C@H]1CCc2cccc(-c3ccccc3)c2C1 tgt="5-hydroxytryptamine receptor 1A (Rattus norvegicus, UniProt P19327)" grouplabel=hi
molecule=CCCN(CCC)[C@H]1CCc2cccc(OC)c2C1 tgt="5-hydroxytryptamine receptor 1A (Rattus norvegicus, UniProt P19327)" grouplabel=lo
molecule=CCCN(CCC)[C@@H]1CCc2cccc(OS(=O)(=O)C(F)(F)F)c2C1 tgt="5-hydroxytryptamine receptor 1A (Rattus norvegicus, UniProt P19327)" grouplabel=med
molecule=CCCN(CCC)[C@@H]1CCc2ccccc2C1 tgt="5-hydroxytryptamine receptor 1A (Rattus norvegicus, UniProt P19327)" grouplabel=med

Attribution: ChEMBL document CHEMBL1125987
